Values from ChEMBL document CHEMBL3232772

Test system: SMMC-7721
Assay: Cytotoxicity against human SMMC7721 cells after 48 hrs by MTT assay
Type: functional, cell-based
Conditions: SMMC-7721, 48 h
pIC50: −log10 of the molar value.
Note to self: values exactly at 5 are label 1. So pIC50 at or above 5 is label 1, below is label 0.

{"Compound": "C=C1C(=O)[C@]23CC[C@H]1C[C@H]2[C@@]12CCC[C@@]4(C)C(=O)N(CCO)[C@H]1O[C@@H]3C[C@@H]24", "Class name": "label 0"}
{"Compound": "C=C1C(=O)[C@@]23CC[C@@H](C[C@H]2[C@@]24CCC[C@@](C)(CN(CCO)C2)[C@@H]14)C(=C)[C@@H]3O", "Class name": "label 1"}
{"Compound": "C=C1C(=O)[C@]23CC[C@H]1C[C@H]2[C@@]12CCC[C@@]4(C)C(=O)N[C@H]1O[C@@H]3C[C@@H]24", "Class name": "label 0"}
{"Compound": "C=C1C(=O)[C@]23CC[C@H]1C[C@H]2[C@@]12CCC[C@@]4(C)CN(CCO)[C@H]1O[C@@H]3C[C@H]42", "Class name": "label 0"}
{"Compound": "C=C1C(=O)[C@]23CC[C@H]1C[C@H]2[C@@]12CCC[C@@]4(C)C5OCCN5[C@H]1O[C@@H]3C[C@@H]24 (stereo not given in full)", "Class name": "label 1"}

----------
# key: entry, value: Activity
Tested on: SW480
Assay: Induction of apoptosis in human SW480 cells assessed as late apoptotic cells at 20 uM after 24 hrs using annexin V-FITC and propidium iodide staining by flow cytometry (reference value: 1.0%)
Type: functional

{"Molecule": "C=C1C(=O)[C@]23CC[C@H]1C[C@H]2[C@@]12CCC[C@@](C)(C(=O)N4CCO[C@H]41)[C@H]2C[C@H]3O", "Activity [%]": 40.1}
{"Molecule": "C=C1C(=O)[C@]23CC[C@H]1C[C@H]2[C@@]12CCC[C@@](C)(CN(CCO)C1)[C@H]2CC3=O", "Activity [%]": 13.3}
{"Molecule": "C=C1C(=O)[C@]23CC[C@H]1C[C@H]2[C@@]12CCC[C@@]4(C)C5OCCN5[C@H]1O[C@@H]3C[C@@H]24 (some centres undefined)", "Activity [%]": 15.9}
{"Molecule": "C=C1C(=O)[C@]23CC[C@H]1C[C@H]2[C@@]12CCC[C@@](C)(CN(CCO)C1)[C@H]2C(=C)C3=O", "Activity [%]": 44.2}

----------
Test system: SW480
Assay: Induction of apoptosis in human SW480 cells assessed as early apoptotic cells at 20 uM after 24 hrs using annexin V-FITC and propidium iodide staining by flow cytometry (reference value: 1.4%)
Format: functional
Property: Activity (%)

{"Molecule": "C=C1C(=O)[C@]23CC[C@H]1C[C@H]2[C@@]12CCC[C@@](C)(C(=O)N4CCO[C@H]41)[C@H]2C[C@H]3O", "Property": "Activity", "Quantitative readout": 46.7}
{"Molecule": "C=C1C(=O)[C@]23CC[C@H]1C[C@H]2[C@@]12CCC[C@@]4(C)C5OCCN5[C@H]1O[C@@H]3C[C@@H]24 (some centres undefined)", "Property": "Activity", "Quantitative readout": 16.9}
{"Molecule": "C=C1C(=O)[C@]23CC[C@H]1C[C@H]2[C@@]12CCC[C@@](C)(CN(CCO)C1)[C@H]2C(=C)C3=O", "Property": "Activity", "Quantitative readout": 13.1}
{"Molecule": "C=C1C(=O)[C@]23CC[C@H]1C[C@H]2[C@@]12CCC[C@@](C)(CN(CCO)C1)[C@H]2CC3=O", "Property": "Activity", "Quantitative readout": 10.9}

----------
Tested on: MEF
Test: Induction of apoptosis in Bax(-/-)/Bak(-/-) MEF assessed as activation of caspase activity at 20 uM after 24 hrs by CASPACE-FITC staining (reference value: 12.2%)
Assay type: functional, Mus musculus

{"Compound": "C=C1C(=O)[C@]23CC[C@H]1C[C@H]2[C@@]12CCC[C@@]4(C)C5OCCN5[C@H]1O[C@@H]3C[C@@H]24 (some centres undefined)", "Activity / %": 87.8}
{"Compound": "C=C1C(=O)[C@]23CC[C@H]1C[C@H]2[C@@]12CCC[C@@](C)(CN(CCO)C1)[C@H]2CC3=O", "Activity / %": 66.6}
{"Compound": "C=C1C(=O)[C@]23CC[C@H]1C[C@H]2[C@@]12CCC[C@@](C)(CN(CCO)C1)[C@H]2C(=C)C3=O", "Activity / %": 97.1}
{"Compound": "C=C1C(=O)[C@]23CC[C@H]1C[C@H]2[C@@]12CCC[C@@](C)(C(=O)N4CCO[C@H]41)[C@H]2C[C@H]3O", "Activity / %": 93.2}

----------
System: SMMC-7721
Assay: Cytotoxicity against human SMMC7721 cells after 48 hrs by MTT assay
Type: functional, cell-based
Settings: SMMC-7721, 48 h
# key: entry, value: IC50
Property: IC50 (µM)

{"Chemical structure": "C=C1C(=O)[C@]23CC[C@H]1C[C@H]2[C@@]12CCC[C@@](C)(CN(CCO)C1)[C@H]2C(=C)C3=O", "Property": "IC50", "Quantitative readout": 11.5}
{"Chemical structure": "C=C1C(=O)[C@]23CC[C@H]1C[C@H]2[C@@]12CCC[C@@](C)(CN(CCO[Si](C)(C)C(C)(C)C)C1)[C@H]2C(=C)C3=O", "Property": "IC50", "Quantitative readout": 2.63}
{"Chemical structure": "C=C1C(=O)[C@]23CC[C@H]1C[C@H]2[C@@]12CCC[C@@](C)(COC1=O)[C@H]2C[C@H]3O", "Property": "IC50", "Quantitative readout": 3.96}
{"Chemical structure": "C=C1C(=O)[C@]23CC[C@H]1C[C@H]2[C@@]12CCC[C@@](C)(C(=O)N4CCO[C@H]41)[C@H]2C[C@H]3O", "Property": "IC50", "Quantitative readout": 2.63}
{"Chemical structure": "C=C1C(=O)[C@]23CC[C@H]1C[C@H]2[C@@]12CCC[C@@](C)(CN(CCO)C1)[C@H]2C[C@H]3O", "Property": "IC50", "Quantitative readout": 11.2}
{"Chemical structure": "C=C1C(=O)[C@]23CC[C@H]1C[C@H]2[C@@]12CCC[C@@](C)(CN(CCO)C1)[C@H]2CC3=O", "Property": "IC50", "Quantitative readout": 15.2}

----------
# key: entry, value: IC50
Experiment: Cytotoxicity against human MCF7/ADR cells after 48 hrs by MTT assay
Assay type: functional, cell-based
Conditions: NCI/ADR-RES

{"Chemical structure": "C=C1C(=O)[C@]23CC[C@H]1C[C@H]2[C@@]12CCC[C@@]4(C)C(=O)N[C@H]1O[C@@H]3C[C@@H]24", "IC50 [µM]": 28.3}
{"Chemical structure": "COc1cccc2c1C(=O)c1c(O)c3c(c(O)c1C2=O)C[C@@](O)(C(=O)CO)C[C@@H]3O[C@H]1C[C@H](N)[C@H](O)[C@H](C)O1", "IC50 [µM]": 68.4}
{"Chemical structure": "C=C1C(=O)[C@]23CC[C@H]1C[C@H]2[C@@]12CCC[C@@](C)(C(=O)N4CCO[C@H]41)[C@H]2C[C@H]3O", "IC50 [µM]": 8.8}

----------
# key: entry, value: Activity
Tested on: MEF
Test: Induction of apoptosis in Bax(-/-)/Bak(-/-) MEF assessed as early apoptotic cells at 20 uM after 24 hrs using annexin V-FITC and propidium iodide staining by flow cytometry (reference value: 0.6%)
Type: functional, Mus musculus

{"Compound": "C=C1C(=O)[C@]23CC[C@H]1C[C@H]2[C@@]12CCC[C@@](C)(CN(CCO)C1)[C@H]2CC3=O", "Activity": "11.7%"}
{"Compound": "C=C1C(=O)[C@]23CC[C@H]1C[C@H]2[C@@]12CCC[C@@](C)(C(=O)N4CCO[C@H]41)[C@H]2C[C@H]3O", "Activity": "21.7%"}
{"Compound": "C=C1C(=O)[C@]23CC[C@H]1C[C@H]2[C@@]12CCC[C@@]4(C)C5OCCN5[C@H]1O[C@@H]3C[C@@H]24 (some centres undefined)", "Activity": "1.9%"}
{"Compound": "C=C1C(=O)[C@]23CC[C@H]1C[C@H]2[C@@]12CCC[C@@](C)(CN(CCO)C1)[C@H]2C(=C)C3=O", "Activity": "28.2%"}
